Each recorded value in this set is attributed to ChEMBL document CHEMBL4665778.

# Measured Target: PI3-kinase p110-delta/p85-alpha (Homo sapiens, UniProt O00329)
# Sequence (P27986 whole entry): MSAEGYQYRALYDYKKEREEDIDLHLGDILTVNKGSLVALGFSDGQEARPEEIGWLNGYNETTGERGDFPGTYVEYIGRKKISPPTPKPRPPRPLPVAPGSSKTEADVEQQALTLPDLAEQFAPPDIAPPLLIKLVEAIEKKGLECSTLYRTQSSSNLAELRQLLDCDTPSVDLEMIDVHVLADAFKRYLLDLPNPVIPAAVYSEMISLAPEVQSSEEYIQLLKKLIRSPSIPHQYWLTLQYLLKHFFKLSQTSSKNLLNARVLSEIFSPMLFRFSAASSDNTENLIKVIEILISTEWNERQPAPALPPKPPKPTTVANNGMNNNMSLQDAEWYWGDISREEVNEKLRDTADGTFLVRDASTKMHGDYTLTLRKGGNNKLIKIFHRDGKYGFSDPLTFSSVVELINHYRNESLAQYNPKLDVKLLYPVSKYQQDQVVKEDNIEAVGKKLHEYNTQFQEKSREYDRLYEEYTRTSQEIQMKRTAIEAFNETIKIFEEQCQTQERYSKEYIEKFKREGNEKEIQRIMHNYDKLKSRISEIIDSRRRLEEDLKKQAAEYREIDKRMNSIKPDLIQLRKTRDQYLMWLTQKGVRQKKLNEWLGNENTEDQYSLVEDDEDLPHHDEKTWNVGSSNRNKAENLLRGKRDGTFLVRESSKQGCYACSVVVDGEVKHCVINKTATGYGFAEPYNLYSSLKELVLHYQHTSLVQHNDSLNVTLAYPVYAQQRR
# Sequence (O00329 whole entry): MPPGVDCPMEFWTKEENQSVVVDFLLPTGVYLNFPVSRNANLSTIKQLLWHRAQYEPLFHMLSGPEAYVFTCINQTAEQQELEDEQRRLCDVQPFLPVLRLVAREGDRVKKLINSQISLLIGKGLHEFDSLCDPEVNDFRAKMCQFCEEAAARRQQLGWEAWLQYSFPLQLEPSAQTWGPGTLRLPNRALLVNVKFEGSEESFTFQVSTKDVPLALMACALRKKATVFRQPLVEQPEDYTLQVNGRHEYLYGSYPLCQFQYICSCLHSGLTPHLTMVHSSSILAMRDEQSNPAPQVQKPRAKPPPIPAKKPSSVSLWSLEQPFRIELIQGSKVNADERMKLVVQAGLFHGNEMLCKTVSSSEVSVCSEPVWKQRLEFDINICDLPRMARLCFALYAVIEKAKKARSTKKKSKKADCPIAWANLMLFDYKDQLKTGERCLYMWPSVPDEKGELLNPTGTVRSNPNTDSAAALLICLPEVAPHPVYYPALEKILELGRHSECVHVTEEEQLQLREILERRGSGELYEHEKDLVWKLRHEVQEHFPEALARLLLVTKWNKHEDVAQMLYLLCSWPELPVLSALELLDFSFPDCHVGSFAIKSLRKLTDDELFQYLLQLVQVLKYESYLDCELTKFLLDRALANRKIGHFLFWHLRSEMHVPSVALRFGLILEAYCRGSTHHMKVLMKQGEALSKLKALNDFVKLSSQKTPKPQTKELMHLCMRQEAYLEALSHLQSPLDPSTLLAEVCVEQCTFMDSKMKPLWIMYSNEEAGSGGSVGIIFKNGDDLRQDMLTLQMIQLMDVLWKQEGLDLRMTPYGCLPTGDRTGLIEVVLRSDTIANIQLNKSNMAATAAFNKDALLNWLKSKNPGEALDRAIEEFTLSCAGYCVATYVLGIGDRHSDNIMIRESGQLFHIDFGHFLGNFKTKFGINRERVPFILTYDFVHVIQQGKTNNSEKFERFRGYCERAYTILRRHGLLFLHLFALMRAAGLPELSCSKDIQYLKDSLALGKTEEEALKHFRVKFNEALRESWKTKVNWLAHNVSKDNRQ
pIC50: −log10 of the molar value.
Readout Type: pIC50

                               input_smiles  readout_type  readout_qualifier  assay_value
0  Cc1cc(-c2ccn3nc(N)c(-c4nc[nH]n4)c3n2)cc2c1C(=O)N([C@@H](C)C1CC1)C2         pIC50                  =         5.22
1  Cc1cc(-c2ccc3nc(NC(=O)N4CCC[C@H]4C(N)=O)cn3n2)cc2c1C(=O)N([C@@H](C)C1CC1)C2         pIC50                  =         5.09
2  C[C@@H](C1CC1)N1Cc2cc(-c3ccn4nc(N)c(-c5cnn(C)c5)c4n3)cc(C(F)(F)F)c2C1=O         pIC50                  =         5.88
3  CC(=O)Nc1cc2nc(-c3cc4c(c(NS(C)(=O)=O)c3)C(=O)N([C@@H](C)C3CC3)C4)ccn2n1         pIC50                  =         5.21
4  Cc1cc(-c2ccn3ncc(-c4cnn(C)c4)c3n2)cc2c1C(=O)N([C@@H](C)C1CC1)C2         pIC50                  =         5.46
5  Cc1c(-c2c(N)nn3ccc(-c4cc5c(c(C(F)(F)F)c4)C(=O)N([C@@H](C)C4CC4)C5)nc23)cnn1C         pIC50                  =         5.65
6  CC(=O)Nc1cc2nc(-c3cc(C)c4c(c3)CN([C@@H](C)C3CC3)C4=O)ccn2n1         pIC50                  <         5.00
